- Test system: U-251
- assay procedure: NCI tumour cell line growth inhibition, 48 h
Activity calls are given as the source filed them. No stated cut-off is given here; in the data, active = GI50 up to about 1.1 µM and inactive = higher.
Lab note: assign the record to one of active, inactive

*Q* Could you check what this test reported for "COc1ccc2c3c([nH]c2c1)CCN(CCCC(=O)c1ccc(F)cc1)C3" ?
*A* inactive

*Q* Could you check what this test reported for "CCOC(=O)N1Cc2ccoc2C1" ?
*A* inactive

*Q* Could you check what this test reported for "CN(NC(=O)c1ccc(Cl)cc1)C1=NCCCCN1" ?
*A* inactive

*Q* Could you check what this test reported for CC1(C)C(C(=O)OC(C#N)c2cccc(OCC(=O)OCc3ccccc3)c2)C1(C)C (stereo not given) ?
*A* inactive

*Q* Could you check what this test reported for N#CC(Nc1cccc(C(F)(F)F)c1)c1ccccc1C(F)(F)F (stereo not given) ?
*A* inactive

*Q* Could you check what this test reported for "O=c1c2ccccc2nnn1-c1n[nH]c2ccccc12" ?
*A* inactive

*Q* Could you check what this test reported for O=C1CCc2ccccc2O1 [DIHYDROCOUMARIN] ?
*A* inactive

*Q* Could you check what this test reported for CC1(C)CC2(C)CC1CC2O (stereo not given) ?
*A* inactive

*Q* Could you check what this test reported for "O=C(Sc1c(-c2ccccc2)c(=O)n(-c2ccccc2)c(=S)n1-c1ccccc1)c1ccco1" ?
*A* inactive

*Q* Could you check what this test reported for "Cc1ccc2[nH]c3c(C)c4cc[n+](C)cc4c(C)c3c2c1" ?
*A* active
